meta.source: ChEMBL document CHEMBL1145094

Biological target: 5-hydroxytryptamine receptor 3A (Homo sapiens)
Sequence (P46098 whole entry): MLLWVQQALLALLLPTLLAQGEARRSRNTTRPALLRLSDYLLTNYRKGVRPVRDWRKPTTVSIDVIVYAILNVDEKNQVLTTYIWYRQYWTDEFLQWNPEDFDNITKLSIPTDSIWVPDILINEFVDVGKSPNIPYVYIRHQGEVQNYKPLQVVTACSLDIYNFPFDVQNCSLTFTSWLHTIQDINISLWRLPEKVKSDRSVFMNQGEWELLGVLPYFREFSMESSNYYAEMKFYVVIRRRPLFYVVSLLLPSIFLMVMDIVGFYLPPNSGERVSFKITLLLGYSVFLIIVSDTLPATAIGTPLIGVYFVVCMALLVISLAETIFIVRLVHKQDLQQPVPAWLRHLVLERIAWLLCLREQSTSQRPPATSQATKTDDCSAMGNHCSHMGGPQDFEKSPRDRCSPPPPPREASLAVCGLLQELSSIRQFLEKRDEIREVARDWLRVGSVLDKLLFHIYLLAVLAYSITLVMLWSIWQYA
Assay metric: Ki

Query: Find Ki (5-hydroxytryptamine receptor 3A (Homo sapiens)) for the entry `C[C@H](N)Cc1c[nH]c2ccc3c(c12)CCCO3`
Response: > 10 µM

Query: Provide value of Ki for this record tested with 5-hydroxytryptamine receptor 3A (Homo sapiens): CC(N)Cc1c[nH]c2ccc3c(c12)CCCO3 (configuration not stated)
Response: > 10 µM

====

Assignment: determine reported Reduction for the given molecules.
System: Monkey
Assay: Tested for the ability to lower IOP in conscious cynomolgus monkeys with laser-induced ocular hypertension after 3h postdose of the compound; note: test concentration or dose not given here
Type: functional, Cercopithecidae, Eye

Query: Please report the recorded Reduction for `COc1cc(C[C@@H](C)N)c(OC)cc1I` .
Response: 25.3%

Query: Sample COc1ccc2[nH]cc(CC(C)N)c2c1 (stereo unspecified) — what was its Reduction?
Response: 35.2%

Query: I am curious: what Reduction value has been reported for CC(N)Cc1cn(C)c2ccc3c(c12)CCCO3 (stereo unspecified) ?
Response: <28%

Query: Any idea what Reduction was measured for CC(N)Cc1c[nH]c2ccc3c(c12)CCCO3 (stereo unspecified) ?
Response: <28%

Query: Consider the molecule shown here: `C[C@H](N)Cc1c[nH]c2ccc3c(c12)CCCO3` What is its recorded Reduction?
Response: <33.2%

Query: Requested field: Reduction. Item: `C[C@@H](N)Cc1c[nH]c2ccc3c(c12)CCCO3`
Response: <24.8%

====

Target: 5-hydroxytryptamine receptor 1A (Homo sapiens, UniProt P08908)
Sequence (P08908 whole entry): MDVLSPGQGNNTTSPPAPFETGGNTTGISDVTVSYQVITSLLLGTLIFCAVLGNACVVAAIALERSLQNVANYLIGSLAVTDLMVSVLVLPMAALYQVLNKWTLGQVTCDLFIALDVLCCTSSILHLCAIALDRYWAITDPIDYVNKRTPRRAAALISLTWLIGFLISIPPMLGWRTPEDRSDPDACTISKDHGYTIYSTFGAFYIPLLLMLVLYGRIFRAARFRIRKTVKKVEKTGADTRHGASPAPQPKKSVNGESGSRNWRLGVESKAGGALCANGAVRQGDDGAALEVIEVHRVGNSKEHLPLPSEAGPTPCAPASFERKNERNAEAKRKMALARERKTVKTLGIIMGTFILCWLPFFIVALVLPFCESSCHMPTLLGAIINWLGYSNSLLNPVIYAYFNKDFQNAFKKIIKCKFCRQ
Test: Tested for functional response on CHO cells expressing cloned human 5-hydroxytryptamine 1A receptor
Give EC50 for every item shown.

Query: So what does the record say about EC50 for COc1ccc2[nH]cc(CC(C)N)c2c1 (centres undefined) ?
Response: 564 nM

Query: May I ask what EC50 has been recorded for CC(N)Cc1cn(C)c2ccc3c(c12)CCCO3 (centres undefined) ?
Response: > 10000 nM

Query: Look at this compound and give its reported EC50. CC(N)Cc1c[nH]c2ccc3c(c12)CCCO3 (centres undefined)
Response: > 10000 nM

Query: I'd like to know its EC50. The compound in question is CC(N)Cc1c[nH]c2ccc(O)cc12 (centres undefined)
Response: 378 nM

====

Target: 5-hydroxytryptamine receptor 2A (Homo sapiens, UniProt P28223)
Sequence (P28223 whole entry): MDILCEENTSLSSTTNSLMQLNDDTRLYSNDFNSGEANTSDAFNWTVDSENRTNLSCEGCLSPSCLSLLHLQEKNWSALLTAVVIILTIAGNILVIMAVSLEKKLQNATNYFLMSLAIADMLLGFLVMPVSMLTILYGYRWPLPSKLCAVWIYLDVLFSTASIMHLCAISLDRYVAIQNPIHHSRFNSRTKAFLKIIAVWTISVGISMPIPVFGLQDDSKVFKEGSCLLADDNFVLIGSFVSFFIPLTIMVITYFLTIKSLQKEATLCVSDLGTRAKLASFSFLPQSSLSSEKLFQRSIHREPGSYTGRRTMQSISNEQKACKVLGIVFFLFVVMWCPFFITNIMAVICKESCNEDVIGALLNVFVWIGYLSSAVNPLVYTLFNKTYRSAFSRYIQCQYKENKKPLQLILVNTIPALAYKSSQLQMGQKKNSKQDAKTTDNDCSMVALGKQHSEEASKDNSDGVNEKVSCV
Assay: Inhibitory constant determined against cloned human 5-hydroxytryptamine 2A receptor using with [125I]- DOI radioligand
Hi there, I'd appreciate the recorded Ki for every entry that follows.
Express it in nM; write the number only.

Query: Recorded Ki for `NCCc1c[nH]c2ccc3c(c12)CCCO3` , please?
Response: 4.9

Query: I am curious: what Ki value has been reported for `Cn1cc(CCN)c2c3c(ccc21)OCCC3` ?
Response: 8.2

Query: Quick one: Ki of `C[C@@H](N)Cc1c[nH]c2ccc3c(c12)CCCO3` ?
Response: 3.6

Query: // returns reported Ki for input `CN(C)CCc1c[nH]c2ccc3c(c12)CCCO3`
Response: 17
